- Test system: JAK1/3 phosphorylation of its substrate, STAT5, at Y694
- test details: JAK1/3 target modulation assay (IL-2 stimulated STAT5 Y694 phosphorylation in PBMC)
- Assay type: cell-based
- particulars: Homo sapiens, PBMC, Primary human peripheral blood mononuclear cells, IL-2 25 ng/mL; read-out: IL2-STAT5 Inh. IC50
measure name: IC50

>  <compound>
C=CC(=O)N1CCC[C@@H](Nc2ncnc3[nH]cc(C4(C)CC4)c23)C1 [Example 23]

>  <IC50>
100 to 1000 nM

$$$$
>  <compound>
C=CC(=O)N1CCC(Nc2cnc3[nH]cc(C(=O)OCC)c3n2)CC1 [Example 97]

>  <IC50>
100 to 1000 nM

$$$$
>  <compound>
C=CC(=O)N1CCC[C@@H](Nc2ncnc3[nH]cc(C4=CCCC4)c23)C1 [Example 29]

>  <IC50>
100 to 1000 nM

$$$$
>  <compound>
C=CC(=O)N1CCC[C@@H](Nc2ncnc3[nH]cc(C(=O)C4CCCC4)c23)C1 [Example 6]

>  <IC50>
> 1000 nM

$$$$
>  <compound>
C=CC(=O)N1C[C@H](Nc2ncnc3[nH]cc(C(=O)OC(C)C)c23)CC[C@@H]1C [Example 4]

>  <IC50>
100 to 1000 nM

$$$$
>  <compound>
C=CC(=O)N1C[C@H](Nc2ncnc3[nH]cc([C@H]4CC4(F)F)c23)CC[C@@H]1C(C)C (single isomer, unassigned) [Example 63]

>  <IC50>
> 1000 nM

$$$$
>  <compound>
C=CC(=O)N1C[C@H](Nc2ccnc3[nH]cc([C@@H]4C[C@H]4COC)c23)CC[C@@H]1C (single isomer, unassigned) [Example 77]

>  <IC50>
100 to 1000 nM

$$$$

Proceeding to the next compound to report its IC50.
Task: What value of IC50 has been reported for the following compound? C=CC(=O)N1CCC[C@@H](Nc2ncnc3[nH]cc(CC4CC4)c23)C1 [Example 18]
Result: 100 to 1000 nM

###

- tested on: JAK3 (Homo sapiens (Human), UniProt P52333)
- Sequence (P52333 781-1124): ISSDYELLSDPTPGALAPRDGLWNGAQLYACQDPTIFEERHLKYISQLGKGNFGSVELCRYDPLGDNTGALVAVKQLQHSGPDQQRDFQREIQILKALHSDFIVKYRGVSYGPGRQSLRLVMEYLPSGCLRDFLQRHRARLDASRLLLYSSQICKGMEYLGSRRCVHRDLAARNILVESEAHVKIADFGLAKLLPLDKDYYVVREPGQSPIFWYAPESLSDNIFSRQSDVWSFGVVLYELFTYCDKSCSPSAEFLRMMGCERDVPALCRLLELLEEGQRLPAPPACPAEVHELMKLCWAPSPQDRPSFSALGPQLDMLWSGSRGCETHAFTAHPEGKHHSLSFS
pIC50: −log10 of the molar value.
measure name: pIC50

Would you please look over these solved cases?
>  <molecule>
C=CC(=O)N1C[C@H](Nc2ncnc3[nH]cc([C@H]4CC4(F)F)c23)CC[C@@H]1C(C)C (single isomer, unassigned)

>  <pIC50>
< 7.00

$$$$
>  <molecule>
C=CC(=O)N1C[C@H](Nc2ncnc3[nH]cc(C(=O)OCC(C)C)c23)CC[C@@H]1C

>  <pIC50>
≥ 8.00

$$$$

Task: Which measured pIC50 belongs to C=C(C)C(=O)N1C[C@H](Nc2ncnc3[nH]cc([C@@H]4CC4(F)F)c23)CC[C@@H]1C (single isomer, unassigned) , tested on JAK3 (Homo sapiens (Human), UniProt P52333)?
Result: < 7.00

###

The compounds below have reported IC50 for UniProtKB Q08881.

Task: Which measured IC50 belongs to C=CC(=O)N1CCC(Nc2ccnc3[nH]cc(C(=O)C4CC4)c23)CC1 [Example 10] , tested on UniProtKB Q08881?
Result: > 100 nM

Task: Which measured IC50 belongs to C=CC(=O)N1CC(Nc2ncnc3[nH]cc(CC4CC4)c23)CCC1CC (centres unmarked) [Example 38] , tested on UniProtKB Q08881?
Result: ≤ 10 nM

###

- tested on: JAK3 (Homo sapiens (Human), UniProt P52333)
pIC50: −log10 of the molar value.
Recorded pIC50 for the following compounds

Would you please look over these solved cases?
>  <compound>
C=CC(=O)N1CCC[C@@H](Nc2ncnc3[nH]cc([C@H]4C[C@@H]4COC)c23)C1 (single isomer, unassigned)

>  <pIC50>
7.00 to 8.00

$$$$
>  <compound>
C=C(C)C(=O)N1C[C@H](Nc2ncnc3[nH]cc([C@H]4CC4(F)F)c23)CC[C@@H]1C (single isomer, unassigned)

>  <pIC50>
< 7.00

$$$$
>  <compound>
C=CC(=O)N1C[C@H](Nc2ncnc3[nH]cc([C@@H]4CC4(F)F)c23)CC[C@@H]1C(C)C (single isomer, unassigned)

>  <pIC50>
< 7.00

$$$$
>  <compound>
C=CC(=O)N1C[C@H](Nc2ncnc3[nH]cc(CC4CC4)c23)CC[C@@H]1CC (single isomer, unassigned)

>  <pIC50>
< 7.00

$$$$

Proceeding to the next compound to report its pIC50.
Task: What value of pIC50 has been reported for the following compound? C=CC(=O)N1C[C@H](Nc2ncnc3[nH]cc(C(=O)C4CCC4)c23)CC[C@@H]1C
Result: ≥ 8.00

###

The compounds below have reported pIC50 for ITK (Homo sapiens (Human)).
pIC50: −log10 of the molar value.

>  <compound>
C=CC(=O)N1C[C@@H](Nc2ncnc3[nH]cc([C@@H]4CC4(F)F)c23)CC[C@H]1C(C)C (single isomer, unassigned)

>  <pIC50>
7.00 to 8.00

$$$$

Task: What value of pIC50 has been reported for the following compound? C=CC(=O)N1CCC[C@@H](Nc2ncnc3[nH]cc(C(=O)C4CC4)c23)C1
Result: ≥ 8.00

Task: What value of pIC50 has been reported for the following compound? C=CC(=O)N1C[C@H](Nc2ccnc3[nH]cc([C@@H]4CC4(F)F)c23)CC[C@@H]1C (single isomer, unassigned)
Result: ≥ 8.00

Task: What value of pIC50 has been reported for the following compound? C=CC(=O)N1CCC[C@@H](Nc2ncnc3[nH]cc(C(=O)C4CCCC4)c23)C1
Result: ≥ 8.00

###

- Test system: JAK1/3 phosphorylation of its substrate, STAT5, at Y694
- test details: JAK1/3 target modulation assay (IL-2 stimulated STAT5 Y694 phosphorylation in PBMC)
- Assay type: cell-based
- particulars: Homo sapiens, PBMC, Primary human peripheral blood mononuclear cells, IL-2 25 ng/mL; read-out: IL2-STAT5 Inh. IC50
pIC50: −log10 of the molar value.
measure name: pIC50

>  <molecule>
C=CC(=O)N1CCC[C@@H](Nc2ncnc3[nH]cc([C@]45CCC[C@H]4C5(F)F)c23)C1 (single isomer, unassigned)

>  <measure name>
pIC50

>  <test result>
< 6.00

$$$$

Proceeding to the next molecule to report its pIC50.
Task: What value of pIC50 has been reported for the following molecule? C=CC(=O)N1C[C@H](Nc2ncnc3[nH]cc(C(=O)OCC(C)C)c23)CC[C@@H]1C
Result: 6.00 to 7.00

###

- tested on: ITK (Homo sapiens (Human))
- Sequence (Q08881 whole entry): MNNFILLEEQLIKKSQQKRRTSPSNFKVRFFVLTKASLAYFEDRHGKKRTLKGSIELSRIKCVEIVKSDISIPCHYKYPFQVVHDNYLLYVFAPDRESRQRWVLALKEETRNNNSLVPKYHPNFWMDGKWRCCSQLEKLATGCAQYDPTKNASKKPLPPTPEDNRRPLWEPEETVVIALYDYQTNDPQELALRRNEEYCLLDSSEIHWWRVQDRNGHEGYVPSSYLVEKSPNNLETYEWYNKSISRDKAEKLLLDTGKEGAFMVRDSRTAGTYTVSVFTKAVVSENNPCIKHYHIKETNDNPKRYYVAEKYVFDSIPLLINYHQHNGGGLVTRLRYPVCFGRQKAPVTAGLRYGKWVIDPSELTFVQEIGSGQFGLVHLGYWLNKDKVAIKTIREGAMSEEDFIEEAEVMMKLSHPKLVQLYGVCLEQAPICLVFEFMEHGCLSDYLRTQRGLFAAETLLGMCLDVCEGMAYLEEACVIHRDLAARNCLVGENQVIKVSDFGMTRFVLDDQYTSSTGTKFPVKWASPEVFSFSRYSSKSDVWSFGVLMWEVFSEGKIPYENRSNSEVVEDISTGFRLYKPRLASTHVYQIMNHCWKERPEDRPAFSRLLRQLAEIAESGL
- test details: ITK inhibitor binding potency (LanthaScreen competitive binding assay)
- particulars: read-out: ITK Inh. IC50
pIC50: −log10 of the molar value.
measure name: pIC50

Would you please look over these solved cases?
>  <compound>
C=CC(=O)N1CCC[C@@H](Nc2ccnc3[nH]cc(C(=O)C4CC4)c23)C1

>  <test result>
≥ 8.00

$$$$
>  <compound>
C=CC(=O)N1CCC[C@@H](Nc2ccnc3[nH]cc(C(=O)CCOC)c23)C1

>  <test result>
7.00 to 8.00

$$$$
>  <compound>
C=C(C)C(=O)N1C[C@H](Nc2ncnc3[nH]cc([C@@H]4CC4(F)F)c23)CC[C@@H]1C (single isomer, unassigned)

>  <test result>
< 7.00

$$$$

Proceeding to the next compound to report its pIC50.
Task: What value of pIC50 has been reported for the following compound? C=CC(=O)N1C[C@H](Nc2ncnc3[nH]cc([C@@H]4CC4(F)F)c23)CC[C@@H]1CC (single isomer, unassigned)
Result: ≥ 8.00

###

Recorded IC50 for the following compounds
- Tested on: JAK1/3 phosphorylation of its substrate, STAT5, at Y694
- test details: JAK1/3 target modulation assay (IL-2 stimulated STAT5 Y694 phosphorylation in PBMC)
- Type: cell-based
- particulars: Homo sapiens, PBMC, Primary human peripheral blood mononuclear cells, IL-2 25 ng/mL; read-out: IL2-STAT5 Inh. IC50
- Description: Target modulation was based upon the ability of a compound to inhibit JAK1/3 phosphorylation of its substrate, STAT5, at Y694. […] Samples were analyzed by either an MSD multiplex kit for Phospho-STAT5a,b/Total-STAT5a,b (MSD #K15163D) or an MSD single-plex kit for Phospho-STAT5a,b (MSD #K150IGD). The protocols for the respective kits were followed, and the plates were read on the MSD SECTOR S 600.

Would you please look over these solved cases?
>  <compound>
C=CC(=O)N1C[C@H](Nc2ncnc3[nH]cc(C(=O)OCCC)c23)CC[C@@H]1C

>  <test result>
100 to 1000 nM

$$$$
>  <compound>
C=CC(=O)N1C[C@H](Nc2ccnc3[nH]cc(CC4CC4)c23)CC[C@@H]1C

>  <test result>
100 to 1000 nM

$$$$
>  <compound>
C=CC(=O)N1CCC(Nc2ccnc3[nH]cc(C(=O)C4CC4)c23)CC1

>  <test result>
> 1000 nM

$$$$
>  <compound>
C=CC(=O)N1CC[C@@H](Nc2ccnc3[nH]cc(C(=O)C4CC4)c23)C1

>  <test result>
> 1000 nM

$$$$
>  <compound>
C=CC(=O)N1CC(Nc2ncnc3[nH]cc(CC4CC4)c23)CCC1C(C)C (stereo not drawn)

>  <test result>
> 1000 nM

$$$$

Task: What value of IC50 has been reported for the following compound? C=CC(=O)N1CCC[C@@H](Nc2ncnc3[nH]cc(C4CCCC4)c23)C1
Result: 100 to 1000 nM

Task: What value of IC50 has been reported for the following compound? C=CC(=O)N1CCC[C@@H](Nc2ccnc3[nH]cc(C(=O)C4CC4)c23)C1
Result: 100 to 1000 nM

Task: What value of IC50 has been reported for the following compound? C=CC(=O)N1CCC[C@@H](Nc2ccnc3[nH]cc(C(=O)C4(C)CC4)c23)C1
Result: 100 to 1000 nM

Task: What value of IC50 has been reported for the following compound? C=CC(=O)N1C[C@H](Nc2ncnc3[nH]cc(C4CCCC4)c23)CC[C@@H]1C
Result: ≤ 100 nM
